Parameter % residual binding: see the listing below.
# Target: T1, biotinylated CD32bECDHis (human, UniProt P31994 43-223, limits assumed, biotinylated (sites not given))
# T1 sequence (looked up): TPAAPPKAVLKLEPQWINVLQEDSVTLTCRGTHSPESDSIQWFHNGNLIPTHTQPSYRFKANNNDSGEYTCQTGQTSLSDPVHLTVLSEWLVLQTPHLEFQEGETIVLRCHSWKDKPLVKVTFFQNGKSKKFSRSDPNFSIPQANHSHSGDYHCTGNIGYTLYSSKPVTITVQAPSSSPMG
# Protocol Notes: competition ELISA, competitor 034
Readout Type: % residual binding (%)

INSERT INTO assay_data (binder, measured_value) VALUES
  ('Antibody 022 (antibody, V domains shown, also called HuMab 022) VH: QVQLVQSGAEVKKPGASVKVSCKASGYTFTSYGLSWVRQAPGQGLEWMGWISPYNGNTHYAQKLQGRVTMTTDTSTSTADMDLRSLRSDDTAVYYCARASAAHGMDVWGQGTTVTVSS VL: DIQMTQSPSSLSASVGDRVTITCRASQGISSWLAWYQQKPEKAPKSLIYAASSLQSGVPSRFSGSRSGTDFTLTISSLQPEDFATYYCQQYNSYPYTFGQGTKLEIKR', 7),
  ('Antibody 053 (antibody, human IgG1, V domains shown, Human antibody; also called HuMab 053) VH: QVQLVESGGGVVQPGRSLRLSCAVSGFTFRSYGMHWVRQAPGKGLEWVAVIWYDGSIKYYADSVKGRFTISRDNSKNTLYLQMNSLRAEDTAVYFCAREGGRDAFDIWGQGTMVTVSS VL: AVQLTQSPSSLSASVGDRVTITCRASQGISSALAWYQQKPGKAPKLLIYDASSLESGVPSRFSGSGSGTDFTLTISSLQPEDFATYCCQQFNSYPHTFGGGTKVEIKR', 4),
  ('Antibody 024 (antibody, V domains shown, also called HuMab 024) VH: QVQLVQSGAEVKKPGASVKVSCKASGYTFTSYGLSWVRQAPGQGLEWMGWISPYNGNTHYAQKLQGRVTMTTDTSTSTAYMDLRSLRSDDTAVYYCARDSAAHGMDVWGQGTTVTVSS VL: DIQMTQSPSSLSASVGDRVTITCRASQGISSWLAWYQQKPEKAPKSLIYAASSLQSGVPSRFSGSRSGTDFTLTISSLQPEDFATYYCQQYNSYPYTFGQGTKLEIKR', 6),
  ('Antibody 038 (antibody, human IgG1, V domains shown, Human antibody; also called HuMab 038) VH: QVQLVESGGGVVQPGRSLRLSCAASGFTFSTYGMHWVRQAPGKGLEWVAVISHDGSDKYYADSVKGRFTISRDNSKNTLYLQMNSLRAEDTAVYYCARDQSIIETFDYWGQGTLVTVSS VL: EIVLTQSPATLSLSPGERATLSCRASQSVSSYLAWYQQKPGQAPRLLIYDASNRATGIPARFSGSGSGTDFTLTISSLEPEDFAVYYCQQRSNWGFTFGPGTKVDIKR', 354);
